Reference source for all entries: ChEMBL document CHEMBL1148286

- System Under Test: UniProt:P02766
- Assay Info: Ability to bind TTR selectively over all other proteins in human blood plasma (equiv bound)
- Assay type: cell-free
hey, just use t if measured Plasma selectivity is less than 0.3, otherwise f

[
  {
    "Molecule": "O=C(O)c1ccc(-c2cc(F)cc(F)c2)cc1",
    "Assigned Label": "f"
  },
  {
    "Molecule": "O=Cc1cccc(-c2cc(Cl)cc(Cl)c2)c1",
    "Assigned Label": "f"
  },
  {
    "Molecule": "O=C(O)c1ccc(-c2ccccc2F)cc1",
    "Assigned Label": "t"
  },
  {
    "Molecule": "O=C(O)c1ccc(-c2cc(Cl)c(O)c(Cl)c2)cc1",
    "Assigned Label": "t"
  },
  {
    "Molecule": "O=C(O)c1ccc(-c2cc(F)c(O)c(F)c2)cc1",
    "Assigned Label": "t"
  },
  {
    "Molecule": "O=C(O)c1cccc(-c2cc(F)cc(F)c2)c1",
    "Assigned Label": "t"
  },
  {
    "Molecule": "O=C(O)c1cc(-c2ccccc2F)ccc1O",
    "Assigned Label": "t"
  },
  {
    "Molecule": "O=C(O)c1cc(-c2ccc(Cl)cc2Cl)ccc1O",
    "Assigned Label": "t"
  }
]

###

- System Under Test: Transthyretin (Homo sapiens) (UniProt P02766)
- Assay Info: Transthyretin (TTR) amyloidogenesis inhibition activity by employing an acid-mediated (pH 4.4) WTTTR amyloid fibril formation assay, at 7.2 uM conc.
- Type: functional

[
  {
    "Molecule": "Fc1ccc(-c2ccccc2)cc1",
    "System Under Test": "Transthyretin (Homo sapiens) (UniProt P02766)",
    "Fibril formation, %": 100
  },
  {
    "Molecule": "OCc1cccc(-c2ccccc2)c1",
    "System Under Test": "Transthyretin (Homo sapiens) (UniProt P02766)",
    "Fibril formation, %": 85.5
  },
  {
    "Molecule": "O=C(O)c1cccc(-c2cc(F)c(O)c(F)c2)c1",
    "System Under Test": "Transthyretin (Homo sapiens) (UniProt P02766)",
    "Fibril formation, %": 3.5
  },
  {
    "Molecule": "O=C(O)c1ccc(-c2ccccc2F)cc1",
    "System Under Test": "Transthyretin (Homo sapiens) (UniProt P02766)",
    "Fibril formation, %": 4.8
  },
  {
    "Molecule": "Oc1ccc(-c2ccccc2F)cc1",
    "System Under Test": "Transthyretin (Homo sapiens) (UniProt P02766)",
    "Fibril formation, %": 19.6
  },
  {
    "Molecule": "O=C(O)c1cccc(-c2c(F)cccc2F)c1",
    "System Under Test": "Transthyretin (Homo sapiens) (UniProt P02766)",
    "Fibril formation, %": 6.7
  },
  {
    "Molecule": "O=C(O)c1cccc(-c2ccc(F)cc2)c1",
    "System Under Test": "Transthyretin (Homo sapiens) (UniProt P02766)",
    "Fibril formation, %": 15.7
  },
  {
    "Molecule": "Oc1cccc(-c2ccc(F)cc2)c1",
    "System Under Test": "Transthyretin (Homo sapiens) (UniProt P02766)",
    "Fibril formation, %": 46.3
  },
  {
    "Molecule": "O=C(O)c1cc(-c2ccccc2F)ccc1O",
    "System Under Test": "Transthyretin (Homo sapiens) (UniProt P02766)",
    "Fibril formation, %": 2.5
  },
  {
    "Molecule": "O=C(O)c1ccc(-c2cc(F)cc(F)c2)cc1",
    "System Under Test": "Transthyretin (Homo sapiens) (UniProt P02766)",
    "Fibril formation, %": 3.7
  },
  {
    "Molecule": "O=C(O)c1cccc(-c2ccc(F)cc2F)c1",
    "System Under Test": "Transthyretin (Homo sapiens) (UniProt P02766)",
    "Fibril formation, %": 9.1
  },
  {
    "Molecule": "OCc1ccc(-c2cc(Cl)cc(Cl)c2)cc1",
    "System Under Test": "Transthyretin (Homo sapiens) (UniProt P02766)",
    "Fibril formation, %": 5.9
  },
  {
    "Molecule": "O=Cc1cccc(-c2ccccc2)c1",
    "System Under Test": "Transthyretin (Homo sapiens) (UniProt P02766)",
    "Fibril formation, %": 35.4
  },
  {
    "Molecule": "O=C(O)c1cccc(-c2ccccc2F)c1",
    "System Under Test": "Transthyretin (Homo sapiens) (UniProt P02766)",
    "Fibril formation, %": 9.8
  },
  {
    "Molecule": "O=C(O)c1cccc(-c2cc(Cl)c(O)c(Cl)c2)c1",
    "System Under Test": "Transthyretin (Homo sapiens) (UniProt P02766)",
    "Fibril formation, %": 4.4
  },
  {
    "Molecule": "Fc1cc(F)cc(-c2ccccc2)c1",
    "System Under Test": "Transthyretin (Homo sapiens) (UniProt P02766)",
    "Fibril formation, %": 100
  },
  {
    "Molecule": "O=C(O)c1cc(-c2ccc(F)cc2)ccc1O",
    "System Under Test": "Transthyretin (Homo sapiens) (UniProt P02766)",
    "Fibril formation, %": 2.6
  },
  {
    "Molecule": "Oc1cccc(-c2ccccc2)c1",
    "System Under Test": "Transthyretin (Homo sapiens) (UniProt P02766)",
    "Fibril formation, %": 61.2
  },
  {
    "Molecule": "O=C(O)c1ccc(-c2ccc(F)cc2F)cc1",
    "System Under Test": "Transthyretin (Homo sapiens) (UniProt P02766)",
    "Fibril formation, %": 2.6
  },
  {
    "Molecule": "O=C(O)c1cc(-c2ccc(F)cc2F)ccc1O",
    "System Under Test": "Transthyretin (Homo sapiens) (UniProt P02766)",
    "Fibril formation, %": 3.4
  },
  {
    "Molecule": "O=C(O)c1ccc(-c2ccc(F)cc2)cc1",
    "System Under Test": "Transthyretin (Homo sapiens) (UniProt P02766)",
    "Fibril formation, %": 13.3
  },
  {
    "Molecule": "O=C(O)c1ccc(-c2cc(Cl)c(O)c(Cl)c2)cc1",
    "System Under Test": "Transthyretin (Homo sapiens) (UniProt P02766)",
    "Fibril formation, %": 3.8
  },
  {
    "Molecule": "O=C(O)c1cccc(-c2cc(Cl)cc(Cl)c2)c1",
    "System Under Test": "Transthyretin (Homo sapiens) (UniProt P02766)",
    "Fibril formation, %": 3
  },
  {
    "Molecule": "O=C(O)c1ccc(-c2cc(Cl)cc(Cl)c2)cc1",
    "System Under Test": "Transthyretin (Homo sapiens) (UniProt P02766)",
    "Fibril formation, %": 4.9
  },
  {
    "Molecule": "Clc1cc(Cl)cc(-c2ccccc2)c1",
    "System Under Test": "Transthyretin (Homo sapiens) (UniProt P02766)",
    "Fibril formation, %": 52.2
  },
  {
    "Molecule": "O=C(O)c1cc(-c2ccc(Cl)cc2Cl)ccc1O",
    "System Under Test": "Transthyretin (Homo sapiens) (UniProt P02766)",
    "Fibril formation, %": 3.6
  },
  {
    "Molecule": "O=C(O)c1cccc(-c2ccccc2)c1",
    "System Under Test": "Transthyretin (Homo sapiens) (UniProt P02766)",
    "Fibril formation, %": 30.8
  }
]
